Target: dopamine D1 receptor (Macaca mulatta (Rhesus macaque))
Sequence (O77680 whole entry): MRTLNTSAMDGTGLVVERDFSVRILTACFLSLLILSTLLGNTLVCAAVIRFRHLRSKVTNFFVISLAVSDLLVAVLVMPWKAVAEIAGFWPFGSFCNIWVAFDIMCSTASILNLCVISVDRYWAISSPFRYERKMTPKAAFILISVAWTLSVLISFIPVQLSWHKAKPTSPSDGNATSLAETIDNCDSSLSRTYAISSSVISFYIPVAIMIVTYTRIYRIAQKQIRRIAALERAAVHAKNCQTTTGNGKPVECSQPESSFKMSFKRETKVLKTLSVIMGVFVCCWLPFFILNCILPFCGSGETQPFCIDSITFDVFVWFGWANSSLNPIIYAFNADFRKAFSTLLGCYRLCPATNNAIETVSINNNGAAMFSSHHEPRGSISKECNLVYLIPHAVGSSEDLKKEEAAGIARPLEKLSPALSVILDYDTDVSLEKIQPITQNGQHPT
Experiment: Affinity on dopamine D1 receptor, competition with [3H] SCH23390
observed_property: pKi
Please note pKi is a logarithmic value: minus log10 of concentration in mol/L. Answer with that number alone.

>>> df
                                   compound  observed_property  measurement
0  COc1ccc(OC)c2c1C[C@H]1c3cc4c(cc3CCN1C2)CCO4 [DC037034]                pKi         6.61
1  COc1cc2c(c(OC)c1)CN1CCc3cc4c(cc3[C@@H]1C2)OCO4 [DC037078]                pKi         7.13

Could you now consider this next compound?
Which pKi is listed for COc1ccc(OC)c2c1C[C@H]1c3cc(O)c(O)cc3CCN1C2 [DC037035] ?
8.17
